- Tested on: coaggregation of Fusobacterium nucleatum ssp. polymorphum ATCC10953 with Streptococcus sobrinus B13
- PROTOCOL: Coaggregation inhibition test (precipitation of a clump)
- Format: cell-based
- Set-up: key: the mixture in which no precipitation of a clump was observed was evaluated that test substance had a coaggregation inhibition effect (+); the mixture in which precipitation was observed was evaluated that the test substance had no coaggregation inhibition effect (−)
- RUN CONDITIONS: 200 μL of 2% (wt/vol %) test substance solution; room temperature for 30 minutes
RECORDED METRIC: Coaggregation inhibition effect

// solved cases for Coaggregation inhibition effect follow
{"COMPOUND": "CCCCCCCCCCCCO[C@@H]1O[C@H](CO)[C@@H](O[C@H]2O[C@H](CO)[C@@H](O)[C@H](O)[C@H]2O)[C@H](O)[C@H]1O [β-Lauryl maltoside, β-lauryl maltoside]", "RECORDED METRIC": "Coaggregation inhibition effect", "ASSAY VALUE": "−"}
{"COMPOUND": "CCCCCCCCO[C@H]1O[C@H](CO)[C@H](O)[C@H](O)[C@H]1O [α-Octyl galactoside, α-octyl galactoside]", "RECORDED METRIC": "Coaggregation inhibition effect", "ASSAY VALUE": "+"}
{"COMPOUND": "O=C(CO)[C@@H](O)[C@H](O)[C@H](O)CO", "RECORDED METRIC": "Coaggregation inhibition effect", "ASSAY VALUE": "−"}
{"COMPOUND": "O=C[C@H](O)[C@@H](O)[C@@H](O)[C@H](O)CO", "RECORDED METRIC": "Coaggregation inhibition effect", "ASSAY VALUE": "+"}
{"COMPOUND": "OC[C@H]1O[C@@](CO)(O[C@H]2O[C@H](CO)[C@@H](O)[C@H](O)[C@H]2O)[C@@H](O)[C@@H]1O", "RECORDED METRIC": "Coaggregation inhibition effect", "ASSAY VALUE": "−"}
{"COMPOUND": "CCCCCCCCCCCCOCCOCCOCCO[C@@H]1O[C@H](CO)[C@H](O)[C@H](O)[C@H]1O [β-Trioxyethylene dodecylgalactoside, β-trioxyethylene lauryl galactoside]", "RECORDED METRIC": "Coaggregation inhibition effect", "ASSAY VALUE": "+"}
{"COMPOUND": "OC[C@H]1O[C@@H](O[C@H]2[C@H](O)[C@@H](O)C(O)O[C@@H]2CO)[C@H](O)[C@@H](O)[C@H]1O (stereo partly drawn)", "RECORDED METRIC": "Coaggregation inhibition effect", "ASSAY VALUE": "+"}
{"COMPOUND": "CCCCCCCCO[C@@H]1O[C@H](CO)[C@H](O)[C@H](O)[C@H]1O [β-octyl galactoside]", "RECORDED METRIC": "Coaggregation inhibition effect", "ASSAY VALUE": "+"}

**Query** # return recorded Coaggregation inhibition effect for entry CCCCCCCCCCCCO[C@@H]1O[C@H](CO)[C@@H](O)[C@H](O)[C@H]1O [β-Lauryl glucoside, β-lauryl glucoside]
**Result** −

Measured values drawn from patent US8834852B2 for this set.
